# key: entry, value: Dmax
# SYSTEM NAME: HPK1 (Homo sapiens, UniProt Q92918)
# Construct: A HiBiT tag was introduced by CRISPR on the N terminus of HPK1 in Jurkat cells; host or cells: Jurkat (ATCC TIB-152), monoclonal CRISPR HiBiT knock-in line
# Sequence (Q92918 whole entry): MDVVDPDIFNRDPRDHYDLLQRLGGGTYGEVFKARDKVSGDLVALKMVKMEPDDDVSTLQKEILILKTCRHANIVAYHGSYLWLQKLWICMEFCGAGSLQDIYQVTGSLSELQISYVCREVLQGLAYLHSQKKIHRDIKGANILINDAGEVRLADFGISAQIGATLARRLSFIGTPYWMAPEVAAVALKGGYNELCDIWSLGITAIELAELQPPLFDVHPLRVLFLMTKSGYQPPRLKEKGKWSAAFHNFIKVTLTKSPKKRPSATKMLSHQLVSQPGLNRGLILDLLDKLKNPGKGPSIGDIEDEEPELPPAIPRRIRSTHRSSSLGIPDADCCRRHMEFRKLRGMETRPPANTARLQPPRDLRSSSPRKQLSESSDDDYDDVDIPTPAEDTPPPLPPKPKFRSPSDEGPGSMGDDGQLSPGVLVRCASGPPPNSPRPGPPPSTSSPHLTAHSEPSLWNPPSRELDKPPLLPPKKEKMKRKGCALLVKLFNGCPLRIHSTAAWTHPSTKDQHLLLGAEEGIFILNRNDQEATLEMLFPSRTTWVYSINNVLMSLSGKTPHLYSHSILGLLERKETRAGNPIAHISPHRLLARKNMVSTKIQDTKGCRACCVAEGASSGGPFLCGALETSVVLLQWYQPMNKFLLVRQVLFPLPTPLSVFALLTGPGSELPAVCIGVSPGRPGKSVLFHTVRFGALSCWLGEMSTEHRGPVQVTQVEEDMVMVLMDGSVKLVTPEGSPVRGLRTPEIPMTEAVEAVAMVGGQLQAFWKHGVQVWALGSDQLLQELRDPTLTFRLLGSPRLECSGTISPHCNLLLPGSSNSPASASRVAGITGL
# ASSAY COMMENT: HPK1 Cellular HiBiT Degradation Assay
# Format: cell-based
# MEASUREMENT SETUP: HiBiT-tagged HPK1 Jurkat cells, 24 hours, 10 uM to 0.1 nM; Dmax = 100 minus lowest % HPK1 remaining vs DMSO vehicle
ASSAY ENDPOINT: Dmax

- COMPOUND: "Cc1cc(F)c(Nc2nc(-c3ccc4c(c3)N([C@H]3C[C@@H](N5CCCCC5)C3)C(=O)C43CCN(C(=O)CCCCCCCCCNc4cccc5c4C(=O)N(C4CCC(=O)NC4=O)C5=O)CC3)cc3ncn(C(C)C)c23)cc1C(=O)NC(C)C (some centres unmarked)"
  RESULT: "< 45%"
- COMPOUND: "Cc1cc(F)c(Nc2nc(-c3ccc4c(c3)N([C@H]3C[C@@H](N5CCCCC5)C3)C(=O)C43CCN(C(=O)C4CCN(C(=O)C5CC(Nc6cccc7c6C(=O)N(C6CCC(=O)NC6=O)C7=O)C5)C4)CC3)cc3ncn(C(C)C)c23)cc1C(=O)NC(C)C (some centres unmarked)"
  RESULT: "< 45%"
- COMPOUND: "Cc1cc(F)c(Nc2nc(-c3ccc4c(c3)N([C@H]3C[C@@H](N5CCCCC5)C3)C(=O)C43CCN(C(=O)C4CCN(C(=O)N5CCC(Nc6cccc7c6C(=O)N(C6CCC(=O)NC6=O)C7=O)CC5)CC4)CC3)cc3ncn(C(C)C)c23)cc1C(=O)NC(C)C (some centres unmarked)"
  RESULT: "45 to 65%"
- COMPOUND: "Cc1cc(F)c(Nc2nc(-c3ccc4c(c3)N([C@H]3C[C@@H](N5CCCCC5)C3)C(=O)C43CCN(C(=O)CN4CCN(CCCc5cccc6c5C(=O)N(C5CCC(=O)NC5=O)C6=O)CC4)CC3)cc3ncn(C(C)C)c23)cc1C(=O)NC(C)C (some centres unmarked)"
  RESULT: "< 45%"
- COMPOUND: "Cc1cc(F)c(Nc2nc(-c3ccc4c(c3)N([C@H]3C[C@@H](N5CCCCC5)C3)C(=O)C43CCN(C(=O)CCCCCCCC(=O)N[C@H](C(=O)N4C[C@H](O)C[C@H]4C(=O)N[C@@H](C)c4ccc(-c5scnc5C)cc4)C(C)(C)C)CC3)cc3ncn(C(C)C)c23)cc1C(=O)NC(C)C"
  RESULT: "> 65%"
- COMPOUND: "Cc1cc(F)c(Nc2nc(-c3ccc4c(c3)N([C@H]3C[C@@H](N5CCCCC5)C3)C(=O)C43CCN(C(=O)c4ccc(OC5CCN(c6ccc7c(c6)C(=O)N(C6CCC(=O)NC6=O)C7=O)CC5)cc4)CC3)cc3ncn(C(C)C)c23)cc1C(=O)NC(C)C (some centres unmarked)"
  RESULT: "> 65%"
- COMPOUND: "Cc1cc(F)c(Nc2nc(-c3ccc4c(c3)N([C@H]3C[C@@H](N5CCCCC5)C3)C(=O)C43CCN(C(=O)CN4CCC(CCCCC(=O)N[C@H](C(=O)N5C[C@H](O)C[C@H]5C(=O)N[C@@H](C)c5ccc(-c6scnc6C)cc5)C(C)(C)C)CC4)CC3)cc3ncn(C(C)C)c23)cc1C(=O)NC(C)C"
  RESULT: "< 45%"
- COMPOUND: "Cc1cc(F)c(Nc2nc(-c3ccc4c(c3)N([C@H]3C[C@@H](N5CCCCC5)C3)C(=O)C43CCN(C(=O)c4ccc(CC5CCN(c6cccc7c6C(=O)N(C6CCC(=O)NC6=O)C7=O)CC5)cc4)CC3)cc3ncn(C(C)C)c23)cc1C(=O)NC(C)C (some centres unmarked)"
  RESULT: "45 to 65%"

The measured values listed here are drawn from patent US11739101B2.
